Test system: 377384-186-R-J1-PDC complex spheroid viability;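 further: luminescence signal used as a stand-in for viable cells; spheroids exposed to agents for 7 days before reading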
MEASUREMENT PROTOCOL: Anticancer human tumor 377384-186-R-J1-PDC patient-derived pancreatic carcinoma cell line growth inhibition [CLK]
RECORDED CONDITIONS: second compound 3.16 µM; first compound 10 µM; hits give low values
Text: A high-throughput screen of multi-cell type tumor spheroids was designed to identify active combinations of […] and targeted small molecules. Complex spheroids include a stromal component modeled by human endothelial cells (HUVEC) and fibroblasts modeled by human mesenchymal stem cells (MSCs). […] Compounds. […] If the clinical Cmax for an agent had not been determined, the highest concentration tested was 10 microM. […]
Each record is given Criterion met if its reported viability, T/C is strictly below 0.9%. Records at or above 0.9% are given Criterion not met.

{"COMPOUND": "C=C(F)C(=O)N1CCN(c2nc(OCC3CCCN3C)nc3c2CCN(c2cccc4cccc(Cl)c24)C3)CC1CC#N (stereo not given) + CN1CCN(c2cc(C(=O)Nc3cc4cc(-c5cnn(C)c5)ccc4cn3)ccn2)CC1", "CLASS LABEL": "Criterion met"}

INPUT: Confirm or reject: viability, T/C of C=CC(=O)N1CCN(c2nc(=O)n(-c3c(C)ccnc3C(C)C)c3nc(-c4c(O)cccc4F)c(F)cc23)C(C)C1 (stereo not given) + CN1CCN(c2cc(C(=O)Nc3cc4cc(-c5cnn(C)c5)ccc4cn3)ccn2)CC1 lies strictly below 0.9%
OUTPUT: Criterion not met

INPUT: Confirm or reject: viability, T/C of O=C(c1cc(Cc2n[nH]c(=O)c3ccccc23)ccc1F)N1CCN(C(=O)C2CC2)CC1 + CNC(=O)c1ccc(Nc2nc(OC3CCCC3)c3c(-c4ccc5nc(C)oc5c4)c[nH]c3n2)c(OC)c1 lies strictly below 0.9%
OUTPUT: Criterion not met

INPUT: Confirm or reject: viability, T/C of CC1COCCN1c1cc(C2(S(C)(=N)=O)CC2)nc(-c2ccnc3[nH]ccc23)n1 (stereo not given) + CNC(=O)c1ccc(Nc2nc(OC3CCCC3)c3c(-c4ccc5nc(C)oc5c4)c[nH]c3n2)c(OC)c1 lies strictly below 0.9%
OUTPUT: Criterion not met

INPUT: Confirm or reject: viability, T/C of CC(CO)NC(=O)c1cc(-c2ccc(Cl)cc2)nn(-c2cnn(C)c2)c1=O (stereo not given) + CN1CCN(c2cc(C(=O)Nc3cc4cc(-c5cnn(C)c5)ccc4cn3)ccn2)CC1 lies strictly below 0.9%
OUTPUT: Criterion not met
